# System: MDA-MB-468 breast
# assayNotes: NCI-60 one-dose screen, 48 h (100 = growth as untreated, 0 = no growth, -100 = all killed)
# conditionsUsed: 10 µM unless noted
Compounds without any hit were thinned out: in the full panel of roughly 83,000, 20% have a hit. Active and inactive are the calls of the source. Rule for the calls: active = growth percent below 10; inactive = the rest.
endpointName: growth

These recorded examples may help you get a feel for the data.
[[record]]
chemicalstructure = "O=[N+]([O-])c1ccc(CI)cc1"
recordedvalue = "75.6% (inactive)"

[[record]]
chemicalstructure = "O=C(CCc1ccco1)NC1CCN(CC2(c3ccc(Cl)cc3)CCC2)CC1"
recordedvalue = "-11.5% (active)"

[[record]]
chemicalstructure = "CC1(C)N=C(N)N=C(N)N1c1ccc(CCCCc2ccc(Cl)c(S(=O)(=O)F)c2)c(Cl)c1"
recordedvalue = "6.7% (active)"

[[record]]
chemicalstructure = "CC(=O)Nc1ccc(Cc2ccc(NC(C)=O)cc2)cc1"
recordedvalue = "95.6% (inactive)"


Turning to the following molecule.
**Query** Would you mind telling me what growth value was observed for COC(=O)[C@@H](C)C[C@H](Cc1ccccc1)NC(=O)c1csc([C@@H](C[C@H](C(C)C)N(C)C(=O)C2(NC(=O)[C@H]3CCCCN3C)CC2)OC(C)=O)n1 ?
**Result** -4.03% (active)

###

# Test system: SK-MEL-2 melanoma
# assayNotes: NCI-60 one-dose screen, 48 h (100 = growth as untreated, 0 = no growth, -100 = all killed)
# conditionsUsed: 10 µM
The panel holds about 83,000 compounds, 20% with a hit somewhere; the sample as a whole holds those more often. Active and inactive are the calls of the source. The calls were made as follows: active = growth percent below 10; inactive = the rest.
Task for the reader: assign each of the following compounds its reported growth.

Below are worked cases with known answers.
[[record]]
compound = "O=C(/C=C/c1ccco1)c1nc2ccccc2n1Cc1ccc(Br)cc1"
recordedvalue = "46.2% (inactive)"

[[record]]
compound = "O=C(/C=C/c1ccccc1Cl)c1nc2ccccc2n1Cc1ccc(F)cc1"
recordedvalue = "-68.5% (active)"

[[record]]
compound = "O=C(/C=C/c1ccc(F)cc1)c1nc2ccccc2n1Cc1ccc(F)cc1"
recordedvalue = "21.3% (inactive)"


# batch size: 2; output growth per entry
1. COC(=O)C[C@](O)(CCCC(C)C)C(=O)O[C@H]1C(OC)=C[C@@]23CCCN2CCc2cc4c(cc2[C@@H]13)OCO4
2. COCCOCCOCCOc1ccc(-n2cc(CCCN(CCNc3ccnc4cc(Cl)ccc34)C(=O)CCC(=O)O[C@@H]3O[C@@H]4OC5(C)CC[C@H]6[C@H](C)CC[C@@H]([C@H]3C)[C@@]46OO5)nn2)cc1

**Result**
1. -0.0193% (active)
2. 47.9% (inactive)

# map each compound to its growth
1. CC[C@]12C=CCN3CC[C@@]4(c5ccc(OC)cc5N(C)[C@H]4[C@@](O)(C(=O)OC)[C@@H]1OC(=O)CCCC[P+](c1ccc(C)cc1)(c1ccc(C)cc1)c1ccc(C)cc1)[C@@H]32
2. O=C(/C=C/c1ccc(Cl)cc1Cl)c1nc2ccccc2n1Cc1ccc(F)cc1
3. C=CCN=C([Se])NC(=O)c1ccc2c(c1)OCO2
4. N#C[Se]CC(=O)Nc1cccc(C(F)(F)F)c1
5. CC12OOC(C)(OO1)C2CCC(=O)NCCCNc1ccnc2cc(Cl)ccc12 (stereo not given)

**Result**
-87.3% (active)
94.7% (inactive)
143% (inactive)
-31.1% (active)
100% (inactive)

Would you mind giving growth for every compound in the list below?
1. O=C(/C=C/c1ccccc1)c1nc2ccccc2n1Cc1ccc(F)cc1
2. Cc1c2oc3c(C)ccc(C(=O)N[C@@H]4C(=O)N[C@H](C(C)C)C(=O)N5CCC[C@H]5C(=O)N(C)CC(=O)N(C)[C@@H](C(C)C)C(=O)OC4C)c3nc-2c(C(=O)N[C@@H]2C(=O)N[C@H](C(C)C)C(=O)N3CC(=O)C[C@H]3C(=O)N(C)CC(=O)N(C)[C@@H](C(C)C)C(=O)OC2C)c(N)c1=O (stereo not given in full)
3. COc1cc2cc(C(=O)N3C[C@@H](CCl)c4c3cc(OC(=O)N3CCN(C)[C@@H]5CSSC[C@H]53)c3ccccc43)[nH]c2c(OC)c1OC
4. C#CC[Se]C(=O)c1ccc(C(=O)[Se]CC#C)s1

**Result**
18.9% (inactive)
-68.5% (active)
-91.8% (active)
126% (inactive)

**Query** # get_value(readout='growth', item= CC[C@]12C=CCN3CC[C@@]4(c5ccc(OC)cc5N(C)[C@H]4[C@@](O)(C(=O)OC)[C@@H]1OC(=O)CCCC[P+](c1ccc(OC)cc1)(c1ccc(OC)cc1)c1ccc(OC)cc1)[C@@H]32 )
**Result** -91.4% (active)
